- Target Or System: pERK1/2 (Thr202/Tyr204), PANC-1 (KRAS G121D) (Homo sapiens, UniProt P01116, G12D)
- Construct: pERK1/2 HTRF read-out
- Sequence (P01116 1-188 isoform P01116-2 G12D): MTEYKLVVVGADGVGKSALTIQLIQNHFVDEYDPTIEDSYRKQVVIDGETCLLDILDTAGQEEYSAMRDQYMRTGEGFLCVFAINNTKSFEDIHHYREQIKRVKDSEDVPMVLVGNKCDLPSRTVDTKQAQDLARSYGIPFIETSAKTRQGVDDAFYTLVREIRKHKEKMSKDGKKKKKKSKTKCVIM
- Assay Summary: Assay of intracellular pERK1/2 (Thr202/Tyr204) phosphorylation in PANC-1 cells (KRAS G12D)
- Type: cell-based
- Condition Label: pERK1/2, 2 days, read-out: PANC-1 (KRAS G12D) IC50
Parameter IC50: see the listing below.

Here's what some known entries look like.
INSERT INTO assay_data (compound, reported_endpoint, data_value) VALUES
  ('Cc1cc(N)cc(-c2nc3c4c(nc(OC[C@@]56CCCN5C[C@H](F)C6)nc4c2F)N(C(C)c2cccnn2)CCO3)c1C(F)(F)F (single isomer, unassigned) [Compound 127]', 'IC50', '> 100 nM'),
  ('CC(c1cccnc1N)N1c2nc(OC[C@@]34CCCN3C[C@H](F)C4)nc3c(F)c(-c4cc(=O)[nH]c5ccccc45)nc(c23)OC[C@@H]1C (stereo partly drawn) [Compound 360]', 'IC50', '> 100 nM');

Now let's try a different one.
query: // query IC50 value for entry Cc1cc2[nH]ncc2c(-c2nc3c4c(nc(OC[C@@]56CCCN5C[C@H](F)C6)nc4c2F)N([C@@H](C)c2cccnc2N)[C@@H](C2CC2)CO3)c1C(F)(F)F [Compound 391]
result: > 100 nM

====

- Target Or System: pERK1/2 (Thr202/Tyr204), PANC-1 (KRAS G121D) (Homo sapiens, UniProt P01116, G12D)
- Construct: pERK1/2 HTRF read-out
- Assay Summary: Assay of intracellular pERK1/2 (Thr202/Tyr204) phosphorylation in PANC-1 cells (KRAS G12D)
- Format: cell-based
- Condition Label: pERK1/2, 2 days, read-out: PANC-1 (KRAS G12D) IC50
pIC50: −log10 of the molar value.
Reported Endpoint: pIC50

Known pIC50 results, listed for orientation:
INSERT INTO measurements (molecule, data_value) VALUES
  ('Cc1c(F)c(N)cc(-c2nc3c4c(nc(OC[C@@]56CCCN5C[C@H](F)C6)nc4c2F)N(C(C)c2cccnc2N)C[C@H](C)O3)c1C(F)(F)F (single isomer, unassigned) [Compound 253]', '< 7.00'),
  ('CC(c1cccnc1N)N1CCOc2nc(-c3cc(N)cc(Cl)c3C3CC3)c(F)c3nc(OCC4(C#N)CC4)nc1c23 (stereo not drawn)', '< 6.00');

Shift focus to the following entry.
query: Which pIC50 is listed for Cc1c(F)c(N)cc(-c2nc3c4c(nc(OC[C@@]56CCCN5C[C@H](F)C6)nc4c2F)N(C2CCNC2)CCO3)c1C(F)(F)F (stereo partly drawn) ?
result: < 7.00

====

- Target Or System: pERK1/2 (Thr202/Tyr204), NCI-1H441 (KRAS G12V) (Homo sapiens, UniProt P01116, G12V)
- Construct: pERK1/2 HTRF read-out
- Sequence (P01116 1-188 isoform P01116-2 G12V): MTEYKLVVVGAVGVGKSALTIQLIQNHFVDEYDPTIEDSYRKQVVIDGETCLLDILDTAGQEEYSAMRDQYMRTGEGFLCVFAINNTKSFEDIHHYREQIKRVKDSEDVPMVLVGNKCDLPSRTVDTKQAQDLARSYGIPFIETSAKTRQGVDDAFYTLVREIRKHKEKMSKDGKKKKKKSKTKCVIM
- Assay Summary: Assay of intracellular pERK1/2 (Thr202/Tyr204) phosphorylation in NCI-H441 cells (KRAS G12V)
- Format: cell-based
- Condition Label: pERK1/2, 2 days, read-out: NCI-H441 (KRAS G12V) IC50
Reported Endpoint: IC50

Example entries and their recorded answers appear below.
INSERT INTO assay_data (molecule, data_value) VALUES
  ('CC(c1cccnc1N)N1CCOc2nc(-c3cc(O)cc4ccc(F)c(F)c34)c(F)c3nc(O)nc1c23 (centres unmarked)', '> 1000 nM'),
  ('CC(c1cccnc1N)N1CCOc2nc(-c3cc(N)cc(F)c3C(F)(F)F)c(F)c3nc(OC[C@@H]4CCCN4C)nc1c23 (single isomer, unassigned) [Compound 91]', '> 100 nM'),
  ('CC(c1cccnc1N)N1c2nc(OC[C@@]34CCCN3C[C@H](F)C4)nc3c(F)c(-c4cc(=O)[nH]c5ccccc45)nc(c23)OC[C@@H]1C (some centres unmarked)', '> 100 nM'),
  ('Cc1cc2[nH]ncc2c(-c2nc3c4c(nc(OC[C@@]56CCCN5C[C@H](F)C6)nc4c2F)N(C(C)c2cccnc2N)[C@H]2CCC[C@@H]2O3)c1C(F)(F)F (some centres unmarked)', '> 100 nM');

Turning to the following molecule.
query: Give pERK1/2 (Thr202/Tyr204), NCI-1H441 (KRAS G12V) (Homo sapiens, UniProt P01116, G12V) IC50 for CC(c1cccnc1N)N1c2nc(OC[C@@]34CCCN3C[C@H](F)C4)nc3c(F)c(-c4cc(N)c(F)c(Cl)c4C(F)(F)F)nc(c23)OC[C@@H]1C (single isomer, unassigned) [Compound 272]
result: > 100 nM
